System: HT-29 (human colon adenocarcinoma) cells
Format: cell-based
Conditions: 72 h
Non-standard residues stand in square brackets, D forms with d. Residues, ends and D or L forms follow the SMILES beside them. *: point of attachment. Heptadecanoyl = CCCCCCCCCCCCCCCCC(=O)*; Boc = CC(C)(C)OC(=O)*; Nlys = NCCCCNCC(=O)O
Recorded measurements of IC50, one per entry

>  <compound>
CCCCCCCCCCCCCCCCCCC(=O)N(CCCCN=[N+]=[N-])CC(=O)NCC(=O)N(CCCCN=[N+]=[N-])CC(=O)NCC(=O)OC

>  <IC50>
9.1 µM

$$$$
>  <compound>
CCCCCCCCCCCCCCCCC(=O)N(CCCCNC(=O)OC(C)(C)C)CC(=O)NCC(=O)N(CCCCNC(=O)OC(C)(C)C)CC(=O)NCC(=O)OC [Compound 45] (Heptadecanoyl-[Nlys](Boc)G[Nlys](Boc)G-OMe)

>  <IC50>
7.8 µM

$$$$
>  <compound>
CCCCCCCCCCCCCCCC(=O)N(CCCCCCNC(=O)OC(C)(C)C)CC(=O)NCC(=O)N(CCCCCCNC(=O)OC(C)(C)C)CC(=O)NCC(=O)OC

>  <IC50>
6.2 µM

$$$$
>  <compound>
CCCCCCCCCCCCCC(=O)N(CCNC(=O)OC(C)(C)C)CC(=O)NCC(=O)N(CCNC(=O)OC(C)(C)C)CC(=O)NCC(=O)OC

>  <IC50>
4.1 µM

$$$$
